# ASSAY SYSTEM: Matrix-associated proTGFβ1 (hLTBP1-proTGFβ1 and hLTBP3-proTGFβ1 complexes)
# EXPERIMENTAL PROTOCOL: Octet (BLI); cell average KD over ECM average KD
MEASURED PARAMETER: G/D (fold bias) (fold)
Numeric answer only, unit fold assumed.

Ab14 (antibody, IgG1, V domains shown) VH: EVQLLESGGGLVQPGGSLRLSCAASGFTFSAYAMTWVRQAPGKGLEWVSAISGTGGSTYYADSVKGRFTISRDNSKNTLYLQMNSLRAEDTAVYYCARVSSGHWDFDYWGQGTLVTVSS VL: DIQMTQSPSSLSASVGDRVTITCRASQSISSYLNWYQQKPGKAPKLLIYAASSLQSGVPSRFSGSGSGTDFTLTISSLQPEDFATYYCQQVYDPPLTFGGGTKVEIK	17.4
Ab12 (antibody, V domains shown) VH: QVQLVESGGGVVQPGRSLRLSCAASGFTFSDYAMVWVRQAPGKGLEWVSAISGSGFTTYYADSVKGRFTISRDNSKNTLYLQMNSLRAEDTAVYYCARVSSGHWDFDYWGQGTLVTVSS VL: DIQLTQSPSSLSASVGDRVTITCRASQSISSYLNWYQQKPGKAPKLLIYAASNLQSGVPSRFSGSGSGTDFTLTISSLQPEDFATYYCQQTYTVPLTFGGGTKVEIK	22.9

So, Ab17 (antibody, IgG1, V domains shown) VH: EVQLLESGGGVVQPGGSLRLSCAASGFTFSSFAMTWVRQAPGKGLEWVSAISGSGAATYFADSVKGRFTISRDNSKNTLYLQMNSLRAEDTAVYYCARVSSGHWDFDYWGQGTLVTVSS VL: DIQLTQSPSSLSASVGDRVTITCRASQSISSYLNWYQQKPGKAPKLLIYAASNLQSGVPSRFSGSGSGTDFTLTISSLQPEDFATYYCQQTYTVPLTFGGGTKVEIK ? Its G/D (fold bias) was 24.3
